molecular target: RORc ligand binding domain (Homo sapiens)
ASSAY ENDPOINT: IC50 (nM)

CC1(O)CN(C(=O)[C@]23CC[C@H](c4cc(-c5c(F)cccc5F)nnc42)C3(C)C)C1 [Example 92]: 2990
CC(NC(=O)[C@@]12CC[C@@H](c3cc(-c4ccccc4F)nnc31)C2(C)C)c1ccccc1 (some centres unmarked) [Example 183]: 1000
CCN(C[C@@]12CC[C@@H](c3cc(-c4c(F)cccc4F)nnc31)C2(C)C)C(=O)CS(C)(=O)=O [Example 318]: 33

[P] CC1(C)[C@H]2CC[C@]1(c1cnco1)c1nnc(-c3c(F)cccc3F)cc12 [Example 104]
[Q] CC1(C)[C@H]2CC[C@]1(c1nnc(N)o1)c1nnc(-c3c(F)cccc3F)cc12 [Example 255]
[R] CCOC(=O)N(CCC#N)C[C@@]12CC[C@@H](c3cc(-c4c(F)cccc4F)nnc31)C2(C)C [Example 312]
QUERY: Arrange the 3 entries by IC50 so the values rise. // format: requested-order list of labels
RESULT: R, P, Q
(R: 45 nM, P: 222 nM, Q: 822 nM)

====

target: RORc ligand binding domain (Homo sapiens, UniProt P51449)
pIC50: −log10 of the molar value.
ASSAY ENDPOINT: pIC50

CC1(C)[C@H]2CC[C@]1(C(=O)N1CCC1)c1nnc(-c3c(F)cccc3F)cc12: 6.22
CC1(C)[C@@H]2CC[C@@]1(C(=O)N1CC3CC1C3)c1nnc(-c3c(F)cccc3F)cc12: 6.66
CC1(C)[C@H]2CC[C@]1(c1ncn[nH]1)c1nnc(-c3c(F)cccc3F)cc12: 5.66
COC(=O)N(C)[C@@]12CC[C@@H](c3cc(-c4c(F)cccc4F)nnc31)C2(C)C: 6.52
CC1(C)CN(C(=O)[C@@]23CC[C@@H](c4cc(-c5c(F)cccc5F)nnc42)C3(C)C)C1: 5.85

[P] COC1CCN(C(=O)[C@@]23CC[C@@H](c4cc(-c5ccccc5F)nnc42)C3(C)C)CC1
[Q] CNC(=O)[C@H]1[C@@H]2CN(C(=O)[C@]34CC[C@H](c5cc(-c6c(F)cccc6F)nnc53)C4(C)C)C[C@@H]21
QUERY: Given P and given Q , which shows the smaller recorded pIC50? Use the label to indicate which entry you chose.
RESULT: P

====

Molecular target: RORc ligand binding domain (Homo sapiens, UniProt P51449)
Sequence (P51449 269-508 limits assumed): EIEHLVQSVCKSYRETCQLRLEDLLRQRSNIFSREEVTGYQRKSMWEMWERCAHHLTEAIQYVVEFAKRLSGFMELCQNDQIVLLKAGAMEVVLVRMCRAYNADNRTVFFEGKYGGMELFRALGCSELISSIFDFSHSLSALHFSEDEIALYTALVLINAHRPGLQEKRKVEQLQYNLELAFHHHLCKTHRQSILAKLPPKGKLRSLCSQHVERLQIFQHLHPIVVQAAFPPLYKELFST
pIC50: −log10 of the molar value.
ASSAY ENDPOINT: pIC50

CC1(C)[C@@H]2CC[C@@]1(Cn1ccnc1)c1nnc(-c3ccccc3F)cc12 [Example 17]: 5.50
CCOC[C@]12CC[C@H](c3cc(-c4ccccc4F)nnc31)C2(C)C [Example 25]: 6.86
CC1(C)[C@H]2CC[C@]1(CN1CCOC1=O)c1nnc(-c3c(F)cccc3F)cc12 [Example 279]: 6.65

[P] Cc1nnc(N(Cc2ccccc2)C[C@@]23CC[C@@H](c4cc(-c5c(F)cccc5F)nnc42)C3(C)C)o1 [Example 266]
[Q] CN(C)C(=O)N[C@@]12CC[C@@H](c3cc(-c4c(F)cccc4F)nnc31)C2(C)C [Example 320]
QUERY: Would you let me know which has the greater pIC50 value, P or Q ? Use the label to indicate which entry you chose.
RESULT: P
(P: 6.67, Q: 5.82)
